System: Glycine max
EXPERIMENTAL PROTOCOL: Inhibition of soybean 15-lipoxygenase
Think of 50% as a floor: if inhibition stands on it or above, it is TRUE; beneath it, FALSE.

Task: Is the recorded value of inhibition equal to or greater than 50% for this molecule? `O=C(O)c1cccc(O)c1`
Output: FALSE

Task: Is the recorded value of inhibition equal to or greater than 50% for this molecule? `O=C(O)c1ccccc1`
Output: TRUE

Task: Is the recorded value of inhibition equal to or greater than 50% for this molecule? `O=C(O)c1ccc(O)cc1O`
Output: FALSE

Task: Is the recorded value of inhibition equal to or greater than 50% for this molecule? `O=C(O)c1ccccc1O`
Output: FALSE

Task: Is the recorded value of inhibition equal to or greater than 50% for this molecule? `O=C(O)c1ccc(O)c(O)c1`
Output: TRUE

Task: Is the recorded value of inhibition equal to or greater than 50% for this molecule? `O=C(O)/C=C/c1ccc(O)c(O)c1`
Output: FALSE

Task: Is the recorded value of inhibition equal to or greater than 50% for this molecule? `O=C(O)c1cc(O)cc(O)c1`
Output: TRUE

Task: Is the recorded value of inhibition equal to or greater than 50% for this molecule? `COc1cc(C(=O)O)ccc1O`
Output: FALSE

Task: Is the recorded value of inhibition equal to or greater than 50% for this molecule? `O=C(O)c1cccc(O)c1O`
Output: FALSE

Task: Is the recorded value of inhibition equal to or greater than 50% for this molecule? `O=C(O)c1ccc(O)cc1`
Output: FALSE

Task: Is the recorded value of inhibition equal to or greater than 50% for this molecule? `O=C(O)c1cc(O)c(O)c(O)c1`
Output: TRUE

Task: Is the recorded value of inhibition equal to or greater than 50% for this molecule? `O=C(O)c1c(O)cccc1O`
Output: FALSE
